# System: Platelet-derived growth factor receptor alpha (Homo sapiens), P16234 [D842V]
# Sequence (P16234 whole entry D842V): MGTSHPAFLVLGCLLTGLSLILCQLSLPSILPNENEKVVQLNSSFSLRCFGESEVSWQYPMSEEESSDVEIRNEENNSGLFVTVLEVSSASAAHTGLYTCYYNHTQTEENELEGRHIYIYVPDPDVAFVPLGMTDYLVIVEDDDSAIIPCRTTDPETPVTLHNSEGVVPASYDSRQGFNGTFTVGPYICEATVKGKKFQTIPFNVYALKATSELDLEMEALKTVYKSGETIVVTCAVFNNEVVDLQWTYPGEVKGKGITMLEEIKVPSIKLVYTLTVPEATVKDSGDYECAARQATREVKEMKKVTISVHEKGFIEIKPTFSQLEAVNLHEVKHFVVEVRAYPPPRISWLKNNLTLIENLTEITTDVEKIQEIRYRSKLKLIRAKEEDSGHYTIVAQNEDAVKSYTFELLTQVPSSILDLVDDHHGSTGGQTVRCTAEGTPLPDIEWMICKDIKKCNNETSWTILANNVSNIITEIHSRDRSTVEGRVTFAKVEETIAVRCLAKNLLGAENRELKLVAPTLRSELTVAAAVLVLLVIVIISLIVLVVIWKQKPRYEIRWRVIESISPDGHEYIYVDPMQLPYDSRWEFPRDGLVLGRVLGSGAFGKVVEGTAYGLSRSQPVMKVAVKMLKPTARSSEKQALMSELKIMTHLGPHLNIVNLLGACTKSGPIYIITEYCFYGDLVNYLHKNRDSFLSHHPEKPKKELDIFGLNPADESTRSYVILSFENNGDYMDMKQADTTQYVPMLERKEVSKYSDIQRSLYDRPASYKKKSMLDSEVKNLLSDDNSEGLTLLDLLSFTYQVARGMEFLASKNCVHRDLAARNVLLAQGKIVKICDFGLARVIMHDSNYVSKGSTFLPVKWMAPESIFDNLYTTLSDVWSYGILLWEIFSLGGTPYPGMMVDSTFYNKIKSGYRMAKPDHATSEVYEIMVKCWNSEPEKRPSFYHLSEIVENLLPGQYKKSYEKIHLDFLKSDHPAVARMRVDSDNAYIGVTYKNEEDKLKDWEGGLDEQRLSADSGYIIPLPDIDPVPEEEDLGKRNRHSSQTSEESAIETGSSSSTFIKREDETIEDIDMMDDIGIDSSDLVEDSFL
# Measurement Context: at 1 µM
Label scheme for inhibition: lower than 10% is no, 10% and above is yes.

Quick check, inhibition >= 10%? CS(=O)(=O)CCNCc1nc(-c2ccc3ncnc(Nc4ccc(OCc5cccc(C(F)(F)F)c5)cc4)c3c2)cs1
no

Try this molecule too: Cc1ccc2c(-c3ccnc(Nc4ccc5c(c4)OCCO5)n3)c(-c3ccc(C(F)(F)F)cc3)nn2n1
no

Please answer likewise for COc1cc2ncnc(Nc3ccc4c(cnn4Cc4ccccc4)c3)c2cc1OC
no

And the next one, COC(=O)Nc1nc2cc(Oc3ccc(NC(=O)Nc4cccc(Br)c4)cc3)ccc2[nH]1 ?
yes

Follow-up entry: CN1CCN(C(=O)c2ccc(NC(=O)Nc3ccc(N(C)c4ccnc(Nc5ccc(CS(C)(=O)=O)cc5)n4)cc3)cc2)CC1
yes

And CN(C)C(=O)O[C@@H]1CN[C@@H](C#Cc2cc3ncnc(Nc4ccc(OCc5cccc(F)c5)c(Cl)c4)c3s2)C1 ?
no

Let us now turn to Cc1ccc(Nc2ccnc(Nc3cccc(C(N)=O)c3)n2)cc1O
yes

One more molecule: CS(=O)(=O)Nc1cccc(-c2ccc3c(NC(=O)C4CC4)n[nH]c3c2)c1
no

* * *

# Tested System: Rhodopsin kinase GRK7 (Homo sapiens);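 also: mean percent inhibition of GRK7, profiled as part of the GSK PKIS screen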
# Sequence (whole entry): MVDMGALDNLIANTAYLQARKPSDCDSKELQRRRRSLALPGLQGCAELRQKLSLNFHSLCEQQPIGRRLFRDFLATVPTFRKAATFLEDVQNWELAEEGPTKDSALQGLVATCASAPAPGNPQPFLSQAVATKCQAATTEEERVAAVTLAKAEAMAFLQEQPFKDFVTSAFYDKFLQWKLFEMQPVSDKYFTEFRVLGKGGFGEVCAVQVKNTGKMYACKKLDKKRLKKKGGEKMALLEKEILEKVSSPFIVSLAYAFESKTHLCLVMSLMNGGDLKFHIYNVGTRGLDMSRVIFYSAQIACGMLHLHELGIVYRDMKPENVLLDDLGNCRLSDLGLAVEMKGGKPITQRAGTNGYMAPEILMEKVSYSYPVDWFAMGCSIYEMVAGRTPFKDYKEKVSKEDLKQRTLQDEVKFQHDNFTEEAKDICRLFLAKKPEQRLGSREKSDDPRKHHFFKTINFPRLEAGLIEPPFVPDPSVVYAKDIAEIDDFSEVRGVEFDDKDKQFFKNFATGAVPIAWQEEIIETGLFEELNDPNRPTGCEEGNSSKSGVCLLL
# Measurement Context: at 1 µM
Record form. Attribute: inhibition. Fill in for each entry.

Any idea what inhibition came out for N#Cc1c(NC(=O)c2ccccc2F)sc2c1CCCC2 on Rhodopsin kinase GRK7 (Homo sapiens)?
-1.97%

Another: Oc1cccc(-c2nc(-c3ccccc3)[nH]c2-c2ccncc2)c1
-0.71%

Record: COc1ccc2ncnc(Nc3ccc(OCc4ccccc4)cc3)c2c1
6.57%

Could you do the same for Nc1ccc(C#Cc2cncnc2Nc2ccc(OCc3cccc(F)c3)c(Cl)c2)cc1 , please?
1.26%

Cc1ccc(Nc2ccnc(Nc3cccc(C(N)=O)c3)n2)cc1O , same question.
0.17%

Follow-up entry: O=C1Nc2ccc(-c3cccnc3)cc2C1=Cc1cc(Br)c(O)c(Br)c1
60.3%

* * *

# Tested System: Tyrosine-protein kinase FRK (Homo sapiens) (UniProt P42685);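 also: reported percent inhibition is a mean value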
# Sequence (P42685 whole entry): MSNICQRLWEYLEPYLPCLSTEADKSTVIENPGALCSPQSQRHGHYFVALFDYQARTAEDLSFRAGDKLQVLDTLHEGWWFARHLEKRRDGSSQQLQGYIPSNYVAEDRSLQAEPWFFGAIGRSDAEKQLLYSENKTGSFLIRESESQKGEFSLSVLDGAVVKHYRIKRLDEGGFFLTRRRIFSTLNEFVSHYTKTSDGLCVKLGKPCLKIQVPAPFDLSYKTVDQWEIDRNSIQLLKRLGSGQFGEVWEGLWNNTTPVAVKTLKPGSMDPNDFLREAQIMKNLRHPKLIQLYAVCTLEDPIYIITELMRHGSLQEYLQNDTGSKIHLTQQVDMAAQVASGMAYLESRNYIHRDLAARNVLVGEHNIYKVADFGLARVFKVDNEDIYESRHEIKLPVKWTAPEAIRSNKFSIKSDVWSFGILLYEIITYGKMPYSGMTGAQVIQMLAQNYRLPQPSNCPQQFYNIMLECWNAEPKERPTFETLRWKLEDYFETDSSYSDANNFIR
# Measurement Context: at 1 µM
Measured Property: inhibition (%)
Number only, in %; omit the unit.

Recorded inhibition for Nc1nccc(-c2c(-c3ccc(F)cc3)nn3cc(C(F)(F)F)ccc23)n1 with Tyrosine-protein kinase FRK (Homo sapiens) (UniProt P42685), please?
1.04

Follow-up entry: Cc1cc(O)cc(C)c1/C=C/c1cncc(C(=O)N(C)C)c1
1.73

Note, next up: COc1cccc(-n2nc(C)c3c(N/N=C(\C)c4ccncc4)ncnc32)c1
-0.17

What about this compound? NS(=O)(=O)c1ccc(Nc2cc(-c3cccc(O)c3)n[nH]2)cc1
2.04

Try this compound too: [O-][S+]1CCN(Cc2ccc(-c3ccc4ncnc(Nc5ccc(OCc6ccccc6)c(Cl)c5)c4c3)o2)CC1
1.48

All figures here come from ChEMBL document CHEMBL1961873.
